test: growth inhibitors of H69AR lung tumor, primary screen, human, duplicate replicates (AID 580); details: H69AR lung tumor cells viability, ATP luminescence, 72 h; at 10 µM; hits give low values;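 note: 100% = mean luminescence of untreated wells and 0% = no signal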
measured-attribute: viability (%)
The reply should be a number in %, with the unit left off.

Fill in: viability of `O=C(CN1C(=O)c2ccccc2C1=O)Nc1ccccc1C(=O)N1CCCC1` is ___
109

Fill in: viability of `CC(=O)c1c(C)nc(C)nc1NC(=O)Cc1ccccc1` is ___
93.9

Fill in: viability of `CCSc1nnc(NC(=O)c2csc(C)c2)s1` is ___
87.7

Fill in: viability of `COc1ccccc1Nc1ccc(C(=O)NC2CCCCC2)cn1` is ___
93.2

Fill in: viability of COc1cc(NC(=O)C(C)Oc2ccccc2)c(C(=O)O)cc1OC (stereo unspecified) is ___
92.8

Fill in: viability of `c1cn2cc(CSC3CCCCC3)nc2s1` is ___
97.2

Fill in: viability of `CCN(CCCNC(=O)c1cn(CC)c2ccc(S(=O)(=O)N(C)C)cc2c1=O)c1cccc(C)c1` is ___
80

Fill in: viability of O=C(Cn1cnc2c(nnn2Cc2ccc(Cl)cc2)c1=O)NCC1CCCO1 (stereo unspecified) is ___
106

Fill in: viability of `CCc1nc(N)c(C#N)c(-c2ccc(OC)c(OC)c2)c1C` is ___
87.2

Fill in: viability of `CC(C)(C)c1cc(C(=S)N2CCN(CCO)CC2)cc(C(C)(C)C)c1O` is ___
96.2

Fill in: viability of `Cc1nnc(SCC(=O)N(C(C)C)C(C)C)nc1C` is ___
103

---

I'd be grateful if you could share measured Her2 level for these entries.
molecular target: Receptor tyrosine-protein kinase erbB-2 (Homo sapiens); experiment: reducers of endogenous Her2 protein level, primary screen, SKBR3 breast tumor cells, AlphaScreen, ATP viability (AID 461); details: 18-24 h, at 10 µM, hits give low values;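 note: lower value means less Her2 protein in the cells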
The reply should be a number in %, with the unit left off.

Fill in: Her2 level of `COc1ccc(-n2c(SCC(=O)Nc3ccc(C(=O)O)cc3)nnc2-c2cccs2)cc1` is ___
94

Fill in: Her2 level of COc1ccccc1OCc1ccc(C(=O)OCC2CCCO2)o1 (centres undefined) is ___
112

Fill in: Her2 level of `COC(=O)c1c(-c2ccc(F)cc2)noc1N` is ___
97.5

Fill in: Her2 level of `O=C(OCc1nnc(-c2ccccc2)o1)c1ccc(S(=O)(=O)NCc2ccco2)cc1` is ___
98

Fill in: Her2 level of COc1ccccc1CC1(C)NC(=O)N(CC(=O)Nc2cc(C)on2)C1=O (centres undefined) is ___
86

Fill in: Her2 level of `Cc1nc2ccc(S(=O)(=O)NCC(=O)O)cc2s1` is ___
100

Fill in: Her2 level of CN(C1CCS(=O)(=O)C1)S(=O)C12CC3CC(CC(C3)C1)C2 (centres undefined) is ___
95.5

Fill in: Her2 level of `Cc1cc(C(=O)NCCCc2ccccc2)no1` is ___
86

Fill in: Her2 level of `CCCCn1nnnc1SCC(=O)N1CCN(C(=O)c2ccco2)CC1` is ___
100

---

experiment: SK-BR-3 cell growth inhibitors, pilot screen, 24 h, human (AID 572); settings: SK-BR-3 viability, CellTiter-Glo luminescence, at 10 µM, hits give low values;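 note: compound exposure lasted between 18 and 24 h rather than exactly 24 h; 100% = carrier-treated control wells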
I'd be grateful if you could share measured viability for these entries.
The reply should be a number in %, with the unit left off.

Fill in: viability of CCOC(=O)C1CCCN(CCC(C)c2ccccc2)C1 (stereo unspecified) is ___
94

Fill in: viability of `CCCCn1c(SCC(=O)c2ccc3c(c2)OCCO3)nnc1-c1ccco1` is ___
94.5

Fill in: viability of CCOc1ccc(CSC(CC(=O)O)C(=O)O)cc1 (stereo unspecified) is ___
90

Fill in: viability of `CCOC(=O)CSc1ncnc2c1cnn2-c1ccc(C)cc1` is ___
103

Fill in: viability of `COc1ccc2nc(NC(=O)CSc3nnc(-c4ccoc4C)n3C)sc2c1` is ___
112

Fill in: viability of `CCN(CC)C(=O)CSc1nc2ccc(NC(=O)CSc3nccn3C)cc2s1` is ___
88.5

Fill in: viability of `Cc1c(C(=O)O)oc2ccc(S(=O)(=O)NCCC3=CCCCC3)cc12` is ___
100

Fill in: viability of `CCCC(=O)N(Cc1cc2ccccc2[nH]c1=O)c1ccccc1OC` is ___
97

Fill in: viability of CC(NC(=O)Cc1cccs1)c1ccc2c(c1)OCO2 (stereo unspecified) is ___
125

Fill in: viability of O=C(O)CN(c1ccccc1)C1SC(=O)NC1=O (stereo unspecified) is ___
85.5

Fill in: viability of `O=C(CSc1nnc(Cn2nnc(-c3ccccc3)n2)n1-c1ccccc1)Nc1ccc(F)cc1` is ___
91

Fill in: viability of `COC(=O)c1oc2ccc(Br)cc2c1NC(=O)CN1CCN(C)CC1` is ___
92.5

Fill in: viability of `Oc1cc(NCc2cccnc2)ccc1-c1nc2ccccc2o1` is ___
86.5

Fill in: viability of `CCOC(=O)c1cccc(NC(=O)CSc2nnc(C3CCCCC3)n2C)c1` is ___
91

Fill in: viability of `Cc1cc(-n2c(C)cc(C(=O)CSc3nc4ccccc4c(=O)n3Cc3ccco3)c2C)no1` is ___
105

Fill in: viability of `COCCCNC(=O)CCc1nc2cccnc2n1Cc1ccc(OC)cc1` is ___
110

Fill in: viability of `CC(=O)c1c(NCCc2ccccc2)cc(C)oc1=O` is ___
99.5

Fill in: viability of `CC(=O)N1CCC(N(C(=O)Nc2ccc(C)c(C)c2)C2CCCC2)CC1` is ___
92

Fill in: viability of `COc1cc2c(=O)n(Cc3ccccc3)c(=O)n(CC(=O)NCc3ccco3)c2cc1OC` is ___
126

Fill in: viability of `CC(=O)N1CCc2cc(S(=O)(=O)NCCC3=CCCCC3)ccc21` is ___
108

Fill in: viability of `Cc1ccc(-c2noc(CCC(=O)NCC3CCN(Cc4cccc(C)c4)CC3)n2)cc1` is ___
93.5

---

I'd be grateful if you could share measured viability for these entries.
experiment: HUVEC growth inhibition – cell-based, human, primary screen (AID 575); details: HUVEC proliferation, CellTiter-Glo luminescence, 72 h; at 10 µM; hits give low values;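 note: 100% = median of untreated cell wells with 0.1% DMSO on each plate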
The reply should be a number in %, with the unit left off.

Fill in: viability of `CCCS(=O)(=O)N1CCN(C(=O)c2cccs2)CC1` is ___
110

Fill in: viability of `Cc1cc(C)nc(N2CCC(C(=O)NCc3cccc(C(F)(F)F)c3)CC2)n1` is ___
76.6

Fill in: viability of CCOC(=O)C1CCCN(CCC(C)c2ccccc2)C1 (configuration not stated) is ___
106

Fill in: viability of Cc1ccc(C2c3sc(=O)[nH]c3SC3C(=O)NC(=O)C32)cc1 (configuration not stated) is ___
111

Fill in: viability of `Cn1c(-c2cc(Br)ccc2O)n[nH]c1=S` is ___
87

Fill in: viability of `O=C1CCCc2c1cc(C(=O)NCc1ccco1)c(=O)n2-c1ccc(Cl)cc1` is ___
80.8

Fill in: viability of O=C1CC(N2CCN(c3cccc(C(F)(F)F)c3)CC2)C(=O)N1c1ccccc1 (configuration not stated) is ___
92.3

Fill in: viability of `Cc1cnc(SCCc2ccncc2)nc1C` is ___
109

Fill in: viability of Cc1ccccc1N(CC(=O)NCC1CCCO1)C(=O)C1(C)CC(=O)N=C2C=CC=CN21 (configuration not stated) is ___
104

Fill in: viability of O=C1CC(N2CCN(C3CCc4ccccc4C3)CC2)C(=O)N1c1ccccc1 (configuration not stated) is ___
102

Fill in: viability of `Cc1nc(-c2cnn(-c3ccccc3)c2)c2cc(C)oc2n1` is ___
67.2

Fill in: viability of `COCCCNC(=O)CCc1nc(-c2ccccc2Cl)no1` is ___
103

Fill in: viability of `CCCc1nnc2n1N=C(c1ccc(OC)c(OC)c1)CS2` is ___
68.7

Fill in: viability of `CCOc1ccccc1N(CC(=O)NC1CCCC1)C(=O)CCCC(=O)Nc1ccccn1` is ___
106

Fill in: viability of `COC(=O)c1cc(Br)c(=O)n(CCC2=CCCCC2)c1` is ___
92.5

Fill in: viability of `O=C(NCN1CCCCC1)c1cnccn1` is ___
103

Fill in: viability of `CCOC(=O)c1[nH]c2ccc(OC)cc2c1NC(=O)CCN1CCC(C)CC1` is ___
94.1
